Values from patent US20160016907A1

The reader will find reported log10 EC50 values listed item by item below.
# ASSAYED_TARGET: human M1 muscarinic acetylcholine receptors (Homo sapiens)
# Sequence (P11229 whole entry): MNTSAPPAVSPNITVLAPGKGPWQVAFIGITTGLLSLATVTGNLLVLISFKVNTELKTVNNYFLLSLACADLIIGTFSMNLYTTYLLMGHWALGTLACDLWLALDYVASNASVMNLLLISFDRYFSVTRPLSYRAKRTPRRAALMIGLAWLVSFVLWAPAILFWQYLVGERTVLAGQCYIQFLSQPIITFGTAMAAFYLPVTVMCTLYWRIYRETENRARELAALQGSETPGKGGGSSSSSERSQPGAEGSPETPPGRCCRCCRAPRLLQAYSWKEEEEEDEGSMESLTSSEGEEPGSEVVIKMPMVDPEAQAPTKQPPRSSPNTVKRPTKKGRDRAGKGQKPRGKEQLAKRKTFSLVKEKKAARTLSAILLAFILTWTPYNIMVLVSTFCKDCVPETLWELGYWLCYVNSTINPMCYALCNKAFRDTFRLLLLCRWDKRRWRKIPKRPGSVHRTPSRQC
# EXPERIMENT_NOTES: M1 FLIPR assay (PAM, intracellular calcium)
# Format: cell-based
# ASSAY_CONTEXT: potentiation of EC10-EC30 acetylcholine, values marked a: geometric mean of ≧7 determinations, read-out: M1 PAM Inflection Point (μM) Geometric mean of 2-6 determinations (unless otherwise indicated)
PROPERTY: log10 EC50 (log10 of the value in µM)

- COMPOUND: "Cc1cnc(C(=O)NCC2(O)CCC2)cc1Cc1ccc(-n2cccn2)cc1 [Example 44]"
  PROPERTY: "log10 EC50"
  REPORTED_MEASUREMENT: 0.43
- COMPOUND: "Cc1cnc(C(=O)NC2CC3(COC3)C2)cc1Cc1ccc(-n2cccn2)cc1 [Example 28]"
  PROPERTY: "log10 EC50"
  REPORTED_MEASUREMENT: 0.68
- COMPOUND: "Cc1cnc(C(=O)N[C@H]2CCOC[C@@H]2O)cc1Cc1ccc(-c2cnn(C)c2)nc1 [Example 65]"
  PROPERTY: "log10 EC50"
  REPORTED_MEASUREMENT: -0.74
- COMPOUND: "Cc1cnc(C(=O)NC2CCCCC2O)cc1Cc1ccc(-n2cccn2)cc1 (single isomer, unassigned; (-)) [Example 12]"
  PROPERTY: "log10 EC50"
  REPORTED_MEASUREMENT: -0.02
- COMPOUND: "Cc1nc(C(=O)N[C@H]2CCOC[C@@H]2O)cc(Cc2ccc(-n3cccn3)cc2)c1Cl [Example 14]"
  PROPERTY: "log10 EC50"
  REPORTED_MEASUREMENT: -0.94
- COMPOUND: "CC[C@@H](CO)NC(=O)c1cc(Cc2ccc(-n3cccn3)cc2)c(C)cn1 [Example 39]"
  PROPERTY: "log10 EC50"
  REPORTED_MEASUREMENT: 0.68
- COMPOUND: "Cc1cnc(C(=O)NC2CCCCC2O)cc1Cc1ccc(-n2cccn2)cc1 (single isomer, unassigned; (+)) [Example 13]"
  PROPERTY: "log10 EC50"
  REPORTED_MEASUREMENT: 0.16
- COMPOUND: "COc1ccc(Cc2cc(C(=O)N[C@H]3CCCC[C@@H]3O)nc(C)c2Cl)cc1 [Example 25]"
  PROPERTY: "log10 EC50"
  REPORTED_MEASUREMENT: 0.06
- COMPOUND: "Cc1cnc(C(=O)NC2CCOCC2O)cc1Cc1ccc(-c2cncs2)cc1 (single isomer, unassigned; ent-1) [Example 4]"
  PROPERTY: "log10 EC50"
  REPORTED_MEASUREMENT: 0.91
- COMPOUND: "Cc1nc(-c2ccc(Cc3cc(C(=O)N[C@H]4CCOC[C@@H]4O)ncc3C)cc2)cs1 [Example 69]"
  PROPERTY: "log10 EC50"
  REPORTED_MEASUREMENT: -1.32
